# Measurement Notes: Multiple ascending dose
# Format: in vivo, human
# Assay Context: human, plasma, oral, 30 ug, Cmax,ss, 30 µg QD, steady state, n = 3, mean (SD)
Measure Name: Cmax
I'd appreciate it if you included the unit after the number.

Exercise: Look at this compound and give its reported Cmax. `O=C(O)COC[C@H]1CC[C@H](COC(=O)N(c2ccccc2)c2ccc(Cl)cc2)CC1`
Key: 2.29 ng/mL

====

# Measurement Notes: Multiple ascending dose
# Type: in vivo, human
# Assay Context: human, plasma, oral, 10 ug, Tmax,ss, 10 µg BID, steady state, n = 20, median (min–max)
Measure Name: Tmax (h)
Answer with a number only, understood to be in h.

Exercise: Look at this compound and give its reported Tmax. `O=C(O)COC[C@H]1CC[C@H](COC(=O)N(c2ccccc2)c2ccc(Cl)cc2)CC1`
Key: 1
